# Test system: Brine shrimp (Artemia salina) nauplii
# assay_details: in vivo
# run_parameters: 24 h at 37° C., 10 nauplii per vial
recorded_metric: log10 LC50 (log10 of the value in µM)
Please interpret these as log10 of LC50 where LC50 is in µM.

Below are worked cases with known answers.
{"columns": ["molecule", "tested_system", "recorded_metric", "measurement"],
 "data": [
  ["CC1CCC2(C(=O)O)CCC3(C)C(=CCC4C5(C)CC(OC(=O)c6cccnc6)C(O)C(C)(C)C5CCC43C)C2C1C (stereo not drawn) [Compound 3, 2-O-Nicotinoylcorosolic acid]", "Brine shrimp (Artemia salina) nauplii", "log10 LC50", 1.94],
  ["C[C@H]1[C@H](C)CC[C@]2(C(N)=O)CC[C@]3(C)C(=CC[C@@H]4[C@@]5(C)C[C@@H](O)[C@H](O)C(C)(C)[C@@H]5CC[C@]43C)[C@H]12 [Compound 8, Corosolamide]", "Brine shrimp (Artemia salina) nauplii", "log10 LC50", 1.46],
  ["CC(=O)OC1CC2(C)C(CCC3(C)C2C(=O)C=C2C4C(C)C(C)CCC4(C(=O)O)CCC23C)C(C)(C)C1OC(C)=O (stereo not drawn) [Compound 18, Diacetyl-11-ketocorosolic acid]", "Brine shrimp (Artemia salina) nauplii", "log10 LC50", 1.94]
]}

Ask: Name the reported log10 LC50 value associated with the molecule CC1CCC2(C(=O)N3CCNCC3)CCC3(C)C(=CCC4C5(C)CC(O)C(O)C(C)(C)C5CCC43C)C2C1C (stereo not drawn) [Compound 11, N-(Corosolyl)piperazine]
Reply: 0.96

Ask: // next record CC1CCC2(C(=O)O)CCC3(C)C(=CCC4C5(C)CC6OS(=O)(=O)OC6C(C)(C)C5CCC43C)C2C1C (stereo not drawn) [Compound 7]
Reply: 1.18

Ask: // next record CC(=O)O[C@@H]1C[C@]2(C)[C@H]3CC=C4[C@@H]5[C@@H](C)[C@H](C)CC[C@]5(C(=O)O)CC[C@@]4(C)[C@]3(C)CC[C@H]2C(C)(C)[C@H]1OC(C)=O [Compound 2, 2,3-Di-O-acetylcorosolic acid]
Reply: 0.26

Ask: // next record CC1CCC23CCC4(C)C(=CC(OC2=O)C2C5(C)CC(O)C(O)C(C)(C)C5CCC24C)C3C1C (stereo not drawn) [Compound 26, 2α,3β-Dihydroxyurs-12-en-11,28-olide]
Reply: 1.94

Ask: // next record COC(=O)[C@]12CC[C@@H](C)[C@H](C)[C@H]1C1=CC(=O)[C@@H]3[C@@]4(C)C[C@@H](O)[C@H](O)C(C)(C)[C@@H]4CC[C@@]3(C)[C@]1(C)CC2 [Compound 15, Methyl 11-ketocorosolate]
Reply: 1.61

Ask: // next record CC1CCC2(C(=O)NCCN)CCC3(C)C(=CCC4C5(C)CC(O)C(O)C(C)(C)C5CCC43C)C2C1C (stereo not drawn) [Compound 10, N-(2-Aminoethyl)corosolamide]
Reply: 1.99

Ask: // next record COC(=O)C12CCC(C)C(C)C1C1=CC(O)C3C4(C)CC(O)C(O)C(C)(C)C4CCC3(C)C1(C)CC2 (stereo not drawn) [Compound 22, Methyl 11-hydroxycorosolate]
Reply: 1.30
